The values you see were collected from ChEMBL document CHEMBL3102732.

- assay_details: Selectivity index, ratio of CC50 for human P3HR1 cells to EC50 for EBV infected in human P3HR1 cells
- Design: species or system P3HR-1
measurement_kind: Ratio CC50/EC50

| compound | reported |
| --- | --- |
| COc1cc([C@H]2O[C@@H](c3cc(OC)c(OC)c(OC)c3)[C@H](C)[C@H]2C)cc(OC)c1OC [EPIGRANDISIN] | >8 |

Turning to the following compound.
Query: Could you share which Ratio CC50/EC50 value was measured for COc1ccc([C@@H](O)[C@@H](C)Oc2ccc([C@H]3O[C@H](c4ccc(O[C@H](C)[C@H](O)c5ccc6c(c5)OCO6)c(OC)c4)[C@H](C)[C@H]3C)cc2OC)cc1OC [MANASSANTIN B] ?
Result: >116.4

---

- assay_details: Selectivity index, ratio of CC50 for human P3HR1 cells to EC50 for EBV infected in human P3HR1 cells
- Set-up: species or system P3HR-1
Documented Ratio CC50/EC50 across a set of compounds

Known results for compounds:
| structure | Ratio CC50/EC50 |
| --- | --- |
| C=CCc1cc(OC)c(O[C@H](C)C(=O)c2cc(OC)c(OC)c(OC)c2)c(OC)c1 | >9.1 |
| COc1ccc([C@@H](O)[C@@H](C)Oc2ccc(C(=O)[C@H](C)[C@H](C)C(=O)c3ccc(O[C@H](C)[C@H](O)c4ccc5c(c4)OCO5)c(OC)c3)cc2OC)cc1OC | >12.4 |
| COc1cc([C@@H](OC(C)=O)[C@@H](C)Oc2c(OC)cc(/C=C/CO)cc2OC)cc(OC)c1OC | >4.2 |

Turning to the following compound.
Query: Could you share which Ratio CC50/EC50 value was measured for `COc1cc(C(=O)[C@@H](C)Oc2c(OC)cc(/C=C/CO)cc2OC)cc(OC)c1OC` ?
Result: >2.5
